tested on: HUVEC TNFalpha-induced E-selectin immunofluorescence imaging; experiment: E-selectin expression inhibitors, dose response, confirmation, imaging, HUVEC, immunofluorescence, TNFalpha stimulation (AID 517)
The source made the active and inactive calls.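 Rule for the calls: active = activity score of 15 or more, from fitted potency or summed per-dose inhibition z-scores, roughly IC50 of 5 µM; inactive = the rest.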
Give one outcome, nothing more. List: true = active, false = inactive

The following compounds have reported results that may help.
Cc1cc(C)n(C2=NS(=O)(=O)c3ccccc32)n1 ... false
CCOC(=O)c1sc(NC(=O)CSc2n[nH]c(-c3ccccc3)n2)c(C#N)c1C ... false
Cc1cc(NC(=O)COC(=O)c2cccc(S(=O)(=O)N3CCOCC3)c2)no1 ... false

Test call, this compound: CC1Oc2ccccc2N(CC(=O)N(Cc2ccccc2)Cc2ccccn2)C1=O (stereo not drawn)
false

Kindly provide the recorded test outcome for the following compound: `Cn1cccc1Cc1nnc(SCC(=O)N2CCOCC2)n1-c1ccc(F)cc1`
false

Just curious, what result did `O=C(Nc1cccc(F)c1)c1ccc2c(c1)OCO2` get here?
false

====

Give IC50 for every item shown.
tested on: HUVEC TNFalpha-induced E-selectin immunofluorescence imaging; assay: E-selectin expression inhibitors, dose response, confirmation, imaging, HUVEC, immunofluorescence, TNFalpha stimulation (AID 517)
Active and inactive are the calls of the source.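 Rule for the calls: active = activity score of 15 or more, from fitted potency or summed per-dose inhibition z-scores, roughly IC50 of 5 µM; inactive = the rest.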

As a guide, the following entries are already answered.
C[C@H]1CCC/C=C/C2C[C@H](O)CC2[C@H](O)/C=C/C(=O)O1 (stereo not given in full) ... < 0.01 µM
CCOC(=O)C1CCCN(C(=O)c2sc3nc(-c4ccccc4)cn3c2C)C1 (stereo not given) ... > 8 µM (inactive)
CCN(CC)CCCNC(=O)c1cn(C)c2ccc(S(=O)(=O)N(C)C)cc2c1=O ... > 8 µM (inactive)
CCCCSc1nc(O)c(C2OC(=O)c3c2ccc(OC)c3OC)c(=O)n1C (stereo not given) ... > 8 µM (inactive)
Cc1cc(N2C(=O)C3C4C=CC(C4)C3C2=O)ccc1Br (stereo not given) ... > 8 µM (inactive)

Give IC50 for each of the items listed below.
1. O=C(O)C1C2CCC(C2)C1C(=O)NCCCn1ccnc1 (stereo not given)
2. Cc1cc2oc(=O)cc(CN3CCCCC3)c2cc1C(C)C
3. Cc1ccc(O)c(C(=O)c2cc(C#N)c(=O)n(CC3CCCO3)c2)c1 (stereo not given)
4. Cc1ccc(C)c(-n2c(Cc3cc(=O)[nH]c(=O)[nH]3)nnc2SCC(=O)NCc2ccco2)c1

1. > 8 µM (inactive)
2. > 8 µM (inactive)
3. > 8 µM (inactive)
4. > 8 µM (inactive)

If you can, please state the reported IC50 value of `Cc1nc2ccccc2nc1OCC(=O)Nc1cc(C(F)(F)F)ccc1N1CCOCC1` .
> 8 µM (inactive)

====

tested on: HUVEC TNFalpha-induced E-selectin immunofluorescence imaging; test: E-selectin expression inhibitors, dose response, confirmation, imaging, HUVEC, immunofluorescence, TNFalpha stimulation (AID 517)
Activity calls are given as the source filed them.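 How the source made its calls: active means activity score of 15 or more, from fitted potency or summed per-dose inhibition z-scores, roughly IC50 of 5 µM; inactive means the rest.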
Hello, when you answer, please use one of the following outcomes: active, inactive

# example entries with known answers
O=C1CC(c2ccc(S(=O)(=O)N3CCN(c4ccccc4)CC3)cc2)CN1 (configuration not stated) ... inactive
O=c1cc(NCc2ccccc2)nc2n1CCCS2 ... inactive
O=C(c1ccc2c3c(cccc13)C(=O)N(O)C2=O)N1CCCCC1 ... inactive

Hey, what did the test say about Cc1ccc(SC(C)c2nc(-c3ccccc3)no2)cc1 (configuration not stated) ?
inactive

So what was the verdict on CC1=CC=CC2=NC(=O)CC(C)(C(=O)N(CC(=O)NC(C)C)C3CCCC3)N12 (configuration not stated) in this test?
inactive

Recorded test outcome, item `Nc1c2c(nc3ccccc13)N(c1ccccc1)CC2`
inactive

What was the test verdict on `O=C(Nc1ccc(SC(F)F)cc1)c1ccc2nccnc2c1` ?
inactive

Write down the call the test reported for this compound. Item: `CN(Cc1ccccc1)Cc1nc2c([nH]1)c(=O)[nH]c(=O)n2C`
inactive

====

tested on: HUVEC TNFalpha-induced E-selectin immunofluorescence imaging; test: E-selectin expression inhibitors, dose response, confirmation, imaging, HUVEC, immunofluorescence, TNFalpha stimulation (AID 517)
Active and inactive are the calls of the source.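 Rule for the calls: active = activity score of 15 or more, from fitted potency or summed per-dose inhibition z-scores, roughly IC50 of 5 µM; inactive = the rest.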
Pick one: active, inactive

CCOC(=O)C1CCCN(C(=O)c2cc3c(=O)n4cccc(C)c4nc3n2C)C1 (centres undefined) ... inactive
COc1ccc(CCN2C(=O)CC(N3CCN(S(=O)(=O)c4ccccc4)CC3)C2=O)cc1 (centres undefined) ... inactive
O=C1c2ccccc2S(=O)(=O)N1Cc1nnc(-c2ccccc2Br)o1 ... inactive
C=CS(=O)(=O)c1ccc(Oc2ccc(S(=O)(=O)C=C)cc2)cc1 ... active
O=C(NCCN1CCOCC1)c1ccc(=O)oc1 ... inactive

// outcome(item) with item = `Cc1c(O)c(CN2CCCC2)cc2c1oc(=O)c1ccccc12`
inactive

Hi, sorry to bother you, what did the test record for `COCCn1c(=O)[nH]c2cc(C(=O)NCc3cccnc3)ccc2c1=O` ?
inactive

So what was the verdict on `Cc1oc(-c2ccccc2Cl)nc1CSCC(=O)N1CCCC1` in this test?
inactive

Query: recorded result category for `C=CCOC(=O)COc1cc(C)cc2oc(=O)c3c(c12)CCC3` in this test
inactive
